Data credit: ChEMBL document CHEMBL1124060

molecules and their reported Contractile force, % of control
# Species: Cavia porcellus
# test_summary: Concentration needed to achieve a 75% increase in coronary blood flow in 'Langendorff', guinea pig heart (in vitro negative inotropic activity)
# Format: functional
Write the value in % as a bare number.

| molecule | Contractile force, % of control [%] |
| --- | --- |
| COc1ccc(CCN(C)C(C)Cc2ccccc2C#Cc2ccccc2)cc1OC (stereo unspecified) | 90 |
| COc1ccc(C#Cc2ccccc2)c(CC(C)N(C)Cc2ccc(OC)c(OC)c2)c1 (stereo unspecified) | 50 |

GET /values?readout=Contractile force, % of control&item= COc1ccc(C#Cc2ccccc2)c(CC(C)NCCc2cccc(Cl)c2Cl)c1 (stereo unspecified)
83

GET /values?readout=Contractile force, % of control&item= COc1ccc(C#Cc2ccccc2)c(CC(C)NCCc2ccc(OC)c(OC)c2)c1 (stereo unspecified)
95

GET /values?readout=Contractile force, % of control&item= COc1cccc(CCNC(C)Cc2cc(OC)ccc2C#Cc2ccccc2)c1 (stereo unspecified)
115

GET /values?readout=Contractile force, % of control&item= COc1ccc(C#Cc2ccccc2)c(CCC(C)NCCc2ccc(OC)c(OC)c2)c1 (stereo unspecified)
123

GET /values?readout=Contractile force, % of control&item= COc1ccc(CCN(C)C(C)CCc2cc(F)ccc2C#Cc2ccccc2)cc1OC (stereo unspecified)
85

GET /values?readout=Contractile force, % of control&item= COc1ccc(C#Cc2ccccc2)c(CC(C)N(C)CCc2ccccc2)c1 (stereo unspecified)
115

GET /values?readout=Contractile force, % of control&item= COc1ccc(C#Cc2ccccc2)c(CC(C)N(C)CCc2ccc(OC)c(OC)c2)c1 (stereo unspecified)
70

GET /values?readout=Contractile force, % of control&item= "COc1ccc([C@@H]2Sc3ccccc3N(CCN(C)C)C(=O)[C@@H]2OC(C)=O)cc1"
90
